For each record, write down the corresponding T/C % (Tumor relative proliferation rate).
tested on: MDX186 Mini-PDX models (conditional reprogramming cells from a pancreatic cancer patient); assay: Anti-tumor efficacy in MDX186 Mini-PDX model; format: in vivo, human; details: Mini-PDX devices s.c. in nude mice, CTG cell viability day 7, doses, routes and schedules per Table 13
Report the figure in % without appending any unit label.

Item `O=c1[nH]cc(F)c(=O)[nH]1` ; assay system MDX186 Mini-PDX models (conditional reprogramming cells from a pancreatic cancer patient); T/C % (Tumor relative proliferation rate) reported as 90

`Nc1ccn([C@@H]2O[C@H](CO)[C@@H](O)C2(F)F)c(=O)n1` on MDX186 Mini-PDX models (conditional reprogramming cells from a pancreatic cancer patient) gives T/C % (Tumor relative proliferation rate) = 83

T/C % (Tumor relative proliferation rate) for MDX186 Mini-PDX models (conditional reprogramming cells from a pancreatic cancer patient) with input `CCc1c2c(nc3ccc(OC(=O)N4CCC(N5CCCCC5)CC4)cc13)-c1cc3c(c(=O)n1C2)COC(=O)[C@]3(O)CC` equals 5

Bench note, MDX186 Mini-PDX models (conditional reprogramming cells from a pancreatic cancer patient): entry `O=C1[O][Pt]2([NH][C@@H]3CCCC[C@H]3[NH]2)[O]C1=O` , its T/C % (Tumor relative proliferation rate) = 47
